Study system: T1, Human CD27 ECD truncated (ECD 1-121, cleavage site, His6) (human)
T1 construct: also called human CD27 ECD with His Tag; CD27-His
T1 chain: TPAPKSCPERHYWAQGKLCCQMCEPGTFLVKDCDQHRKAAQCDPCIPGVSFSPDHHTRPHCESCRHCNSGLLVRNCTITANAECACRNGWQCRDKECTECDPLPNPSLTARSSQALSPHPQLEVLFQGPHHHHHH
Protocol summary: ProteOn SPR, culture supernatants
Quantity kind: Kd
Quick note: unit goes after the number.

Fill in: Kd of M678 (antibody, V domains shown, IgG; subclass not restated; also called H259/L255) VH: EVQLVQSGAEVKKPGESLKISCKGSGYAFSSSWMNWVRQMPGKGLEWMGRIYAGDGDTAYSPSFQGQVTISADKSISTAYLQWSSLKASDTAMYYCARSDYYGDYGFAYWGQGTLVTVSS VL: DIVMTQSPDSLAVSLGERATINCKASQSVDYAGDSFMNWYQQKPGQPPKLLIYAASNLESGVPDRFSGSGSGTDFTLTISSLQAEDVAVYYCQQSNEDPYTFGQGTKLEIK is ___
53 pM

Fill in: Kd of M703 (antibody, V domains shown, IgG; subclass not restated; also called H270/L267) VH: EVQLVQSGAEVKKPGESLKISCKGSGYAFSSSWMNWVRQMPGKGLEWMGRIYAGDADTAYSPSFQGQVTISADKSISTAYLQWSSLKASDTAMYYCARSDYYGDYGFAYWGQGTLVTVSS VL: DIVMTQSPDSLAVSLGERATINCKASQSVDYAGESFMNWYQQKPGQPPKLLIYAASNLESGVPDRFSGSGSGTDFTLTISSLQAEDVAVYYCQQSNEDPYTFGQGTKLEIK is ___
28 pM

Fill in: Kd of M596 (antibody, V domains shown, IgG; subclass not restated (path 1 mAbs were human IgG1/kappa); also called H239/L257) VH: EVQLVQSGAEVKKPGESLKISCKGSGYAFSSSWMNWVRQMPGKGLEWMGRIYAGDGDTNYSPSFQGQVTISADKSISTAYLQWSSLKASDTAMYYCARSDYYGDYGFAYWGQGTLVTVSS VL: DIVMTQSPDSLAVSLGERATINCKASQSVDYAGDSWMNWYQQKPGQPPKLLIYTASNLESGVPDRFSGSGSGTDFTLTISSLLAEDVAVYYCQQSNEDPYTFGQGTKLEIK is ___
25 pM

Fill in: Kd of M600 (antibody, V domains shown, IgG; subclass not restated; also called H239/L255) VH: EVQLVQSGAEVKKPGESLKISCKGSGYAFSSSWMNWVRQMPGKGLEWMGRIYAGDGDTNYSPSFQGQVTISADKSISTAYLQWSSLKASDTAMYYCARSDYYGDYGFAYWGQGTLVTVSS VL: DIVMTQSPDSLAVSLGERATINCKASQSVDYAGDSFMNWYQQKPGQPPKLLIYAASNLESGVPDRFSGSGSGTDFTLTISSLQAEDVAVYYCQQSNEDPYTFGQGTKLEIK is ___
49 pM

Fill in: Kd of M680 (antibody, V domains shown, IgG; subclass not restated; also called H260/L255) VH: EVQLVQSGAEVKKPGESLKISCKGSGYAFSSSWMNWVRQMPGKGLEWMGRIYAGDGDTNYAPSFQGQVTISADKSISTAYLQWSSLKASDTAMYYCARSDYYGDYGFAYWGQGTLVTVSS VL: DIVMTQSPDSLAVSLGERATINCKASQSVDYAGDSFMNWYQQKPGQPPKLLIYAASNLESGVPDRFSGSGSGTDFTLTISSLQAEDVAVYYCQQSNEDPYTFGQGTKLEIK is ___
30 pM

Fill in: Kd of M706 (antibody, V domains shown, IgG; subclass not restated; also called H272/L267) VH: EVQLVQSGAEVKKPGESLKISCKGSGYAFSSSWMNWVRQMPGKGLEWMGRIYAGDADTNYAPSFQGQVTISADKSISTAYLQWSSLKASDTAMYYCARSDYYGDYGFAYWGQGTLVTVSS VL: DIVMTQSPDSLAVSLGERATINCKASQSVDYAGESFMNWYQQKPGQPPKLLIYAASNLESGVPDRFSGSGSGTDFTLTISSLQAEDVAVYYCQQSNEDPYTFGQGTKLEIK is ___
13 pM
